Would you mind telling me the reported IC50 of each entry?
Assay: In vitro inhibitory concentration against HMVE cell migration was determined
Format: functional, cell-based
Details: Homo sapiens
Give bare numbers, in nM.

Examples with answers:
{"columns": ["INPUT SMILES", "UNIT SYMBOL", "RESULT"],
 "data": [
  ["CCC[C@@H](C(=O)N[C@H](C(=O)N[C@@H](CCCN=C(N)N)C(=O)N1CCC[C@H]1C(=O)NCC)[C@@H](C)CC)N(C)C(=O)[C@@H](NC(=O)[C@H](NC(=O)[C@@H](NC(=O)CNC(=O)CN(C)C(C)=O)C(C)C)[C@H](C)CC)[C@@H](C)O", "nM", 0.54],
  ["CCC[C@@H](C(=O)N[C@H](C(=O)N[C@@H](CCCN=C(N)N)C(=O)N1CCC[C@H]1C(=O)NCC)[C@@H](C)CC)N(C)C(=O)[C@@H](NC(=O)[C@H](NC(=O)[C@@H](NC(=O)CNC(=O)CN(C)C(=O)CCC(=O)O)C(C)C)[C@H](C)CC)[C@@H](C)O", "nM", 0.45]
]}

For each of the compounds below, state IC50.
1. CCC[C@H](NC(=O)[C@@H](NC(=O)[C@H](NC(=O)[C@@H](NC(=O)CNC(C)=O)C(C)C)[C@H](C)CC)[C@@H](C)O)C(=O)N[C@H](C(=O)N[C@@H](CCCN=C(N)N)C(=O)NCC)[C@@H](C)CC
2. CCC[C@H](NC(=O)[C@@H](NC(=O)[C@H](NC(=O)[C@@H](NC(=O)CNC(C)=O)C(C)C)[C@H](C)CC)[C@@H](C)O)C(=O)N[C@H](C(=O)N[C@@H](CCCN=C(N)N)C(=O)N1CCC[C@H]1C(=O)NCC)[C@@H](C)CC
3. CCC[C@H](NC(=O)[C@@H](NC(=O)[C@H](CCCN=C(N)N)NC(=O)[C@@H](NC(=O)[C@H](NC(=O)[C@@H](NC(=O)CNC(C)=O)C(C)C)[C@H](C)CC)[C@@H](C)O)[C@@H](C)CC)C(=O)NCC

Reply:
4.22
0.07
1.45

----------
Would you mind telling me the reported IC50 of each entry?
Experiment: In vitro inhibitory concentration against HMVE cell migration was determined
Assay type: functional, cell-based
Conditions: Homo sapiens
One number for each entry, in nM.

Examples with answers:
{"columns": ["INPUT SMILES", "OUTCOME MEASURE", "UNIT SYMBOL", "RESULT"],
 "data": [
  ["CCC[C@@H](C(=O)N[C@H](C(=O)N[C@@H](CCCN=C(N)N)C(=O)N1CCC[C@H]1C(=O)NC(C)C)[C@@H](C)CC)N(C)C(=O)[C@@H](NC(=O)[C@H](NC(=O)[C@@H](NC(=O)CNC(=O)CN(C)C(=O)CCC(=O)O)C(C)C)[C@H](C)CC)[C@@H](C)O", "IC50", "nM", 0.06],
  ["CCC[C@H](NC(=O)[C@@H](NC(=O)[C@H](NC(=O)[C@@H](NC(=O)CNC(=O)CN(C)C(C)=O)C(C)C)[C@H](C)CC)[C@@H](C)O)C(=O)N[C@H](C(=O)N[C@@H](CCCN=C(N)N)C(=O)N1CCC[C@H]1C(=O)NC(C)C)[C@@H](C)CC", "IC50", "nM", 29]
]}

# ---- query compound ----
Query: Give a short answer stating reported IC50 for `CCC[C@H](NC(=O)[C@@H](NC(=O)[C@H](NC(=O)[C@@H](NC(=O)CNC(=O)CN(C)C(=O)CCC(=O)O)C(C)C)[C@H](C)CC)[C@@H](C)O)C(=O)N[C@H](C(=O)N[C@@H](CCCN=C(N)N)C(=O)N1CCC[C@H]1C(=O)NCC)[C@@H](C)CC` .
Reply: 0.26
